tested on: Zymoseptoria tritici (SEPTTR-184); test: Cyp51 dsRNA tile (fragment) foliar application bioassay (Example 6); type: in vivo; details: 3 days curative; calculated from disease control
measured quantity: ED80 (ppm) SEPTTR-184 3DC

// lookup ED80 (ppm) SEPTTR-184 3DC for MgCyp51-T6: dsRNA tile of Zymoseptoria tritici Cyp51, 280 bp, location 881-1160 (nucleic acid, listed as Zymoseptoria tritici) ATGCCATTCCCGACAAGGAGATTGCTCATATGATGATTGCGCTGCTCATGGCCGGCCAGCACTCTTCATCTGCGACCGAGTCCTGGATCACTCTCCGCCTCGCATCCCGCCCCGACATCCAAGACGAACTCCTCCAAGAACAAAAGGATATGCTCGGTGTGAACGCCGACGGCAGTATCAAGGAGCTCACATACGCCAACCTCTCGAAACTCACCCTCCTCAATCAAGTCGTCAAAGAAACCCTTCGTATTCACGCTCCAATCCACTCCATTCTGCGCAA >200 ppm
